The measurements presented in this section are drawn from paper PMC4940160.

Biological target: NELF-A full-length;NELF-B;NELF-D patch mutant (called NELF-C) (Homo sapiens;Homo sapiens;Homo sapiens, UniProt Q9H3P2;Q8WX92;Q8IXH7-4 1-528;49-628;1-581, ||R282Q;K306M;K362M;K363M;K365M;K375M;K379M;R410Q;R497Q)
Sequence (Q9H3P2 whole entry, stated change not applied, chain 1 of 3): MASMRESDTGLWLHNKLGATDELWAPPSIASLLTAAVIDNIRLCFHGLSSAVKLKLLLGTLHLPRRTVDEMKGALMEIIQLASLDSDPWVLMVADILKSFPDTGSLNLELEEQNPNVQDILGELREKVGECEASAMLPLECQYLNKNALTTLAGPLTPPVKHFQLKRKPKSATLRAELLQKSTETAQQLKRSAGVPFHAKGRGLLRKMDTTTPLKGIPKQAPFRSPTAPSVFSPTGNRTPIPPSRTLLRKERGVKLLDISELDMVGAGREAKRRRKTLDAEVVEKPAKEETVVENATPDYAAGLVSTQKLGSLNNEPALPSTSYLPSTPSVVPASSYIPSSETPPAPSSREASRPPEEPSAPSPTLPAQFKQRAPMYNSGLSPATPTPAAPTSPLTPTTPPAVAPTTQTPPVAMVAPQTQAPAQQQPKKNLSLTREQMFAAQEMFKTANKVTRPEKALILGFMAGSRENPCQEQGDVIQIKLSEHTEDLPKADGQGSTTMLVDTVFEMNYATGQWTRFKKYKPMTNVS
Sequence (Q8WX92 whole entry, stated change not applied, chain 2 of 3): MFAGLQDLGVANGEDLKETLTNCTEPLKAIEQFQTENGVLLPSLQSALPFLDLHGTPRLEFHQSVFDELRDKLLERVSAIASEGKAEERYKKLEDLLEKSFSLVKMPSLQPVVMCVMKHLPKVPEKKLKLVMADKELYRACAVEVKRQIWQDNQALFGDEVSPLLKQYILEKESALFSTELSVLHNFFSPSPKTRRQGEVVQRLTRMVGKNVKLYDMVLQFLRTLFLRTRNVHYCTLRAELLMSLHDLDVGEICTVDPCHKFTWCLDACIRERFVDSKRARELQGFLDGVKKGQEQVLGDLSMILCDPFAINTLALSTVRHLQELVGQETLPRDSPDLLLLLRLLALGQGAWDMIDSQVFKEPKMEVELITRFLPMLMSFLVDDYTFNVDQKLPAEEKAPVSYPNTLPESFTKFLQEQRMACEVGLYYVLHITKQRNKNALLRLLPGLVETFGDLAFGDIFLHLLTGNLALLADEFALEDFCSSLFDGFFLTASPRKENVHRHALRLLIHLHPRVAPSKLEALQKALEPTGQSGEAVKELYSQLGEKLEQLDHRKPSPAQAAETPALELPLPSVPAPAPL
Sequence (Q8IXH7 10-590 R291Q/K315M/K371M/K372M/K374M/K384M/K388M/R419Q/R506Q, chain 3 of 3): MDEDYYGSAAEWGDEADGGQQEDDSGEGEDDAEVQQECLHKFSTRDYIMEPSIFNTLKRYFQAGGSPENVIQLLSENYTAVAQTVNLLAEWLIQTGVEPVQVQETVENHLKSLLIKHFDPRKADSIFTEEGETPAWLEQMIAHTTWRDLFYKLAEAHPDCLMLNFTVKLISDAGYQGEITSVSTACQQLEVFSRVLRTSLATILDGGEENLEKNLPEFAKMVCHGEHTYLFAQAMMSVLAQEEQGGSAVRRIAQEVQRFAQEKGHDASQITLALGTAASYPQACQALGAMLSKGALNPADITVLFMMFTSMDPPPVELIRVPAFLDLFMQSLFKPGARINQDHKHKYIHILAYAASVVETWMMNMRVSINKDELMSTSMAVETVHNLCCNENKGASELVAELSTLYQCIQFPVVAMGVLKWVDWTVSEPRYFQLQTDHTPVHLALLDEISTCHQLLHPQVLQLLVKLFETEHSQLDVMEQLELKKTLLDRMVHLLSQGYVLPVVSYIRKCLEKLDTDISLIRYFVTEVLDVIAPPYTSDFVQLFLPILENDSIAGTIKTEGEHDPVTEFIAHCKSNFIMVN
Experiment: fluorescence anisotropy; yeast tRNA 5 ug/ml; error as printed; NELF-AC: 30 mM NaCl, 3 mM MgCl2, 10 mM Na-HEPES pH 7.4, 2 mM DTT, 50 ug/ml BSA; other NELF complexes: same with 60 mM NaCl and 5 ug/ml yeast tRNA; 10 nM nucleic acid, incubated at RT, read at 30 C
Conditions: protein: recombinant;recombinant;recombinant, tags: none stated;N-His6-TEV in NELF-B and NELF-BE constructs (cleaved);N-His6-TEV, copies: 1;1;1, label: 5'-FAM, single strand
Quantity name: Kd (µM)
One number for each entry, in µM.

Incoming: What value of Kd has been reported for the following binder? AAGGGGAGCGGGGGAGGAUAAUAGG (ssRNA) [60% GC ssRNA]
Outgoing: 0.29
